// read-out pIC50, gathered for High affinity nerve growth factor receptor (Homo sapiens, UniProt P04629) from published studies
pIC50: −log10 of the molar value.
valueKind: pIC50

[[record]]
molecule = "COc1cc(Cc2c[nH]c3ncccc23)c(F)cc1OCc1ccc(Cl)cc1"
valuekind = "pIC50"
result = "≥ 5.00"

[[record]]
molecule = "CNC(=O)c1ccc(-c2cc(OC3CCOCC3)c3cn[nH]c3c2)cc1N1CCN(C2CCCCC2)CC1"
valuekind = "pIC50"
result = 7.11

[[record]]
molecule = "CCOc1nn(-c2ccccc2)c(NC(=O)N[C@@H]2CN([C@@H](CO)C(F)(F)F)C[C@H]2c2ccc(F)c(F)c2)c1C"
valuekind = "pIC50"
result = "6.00 to 7.00"

[[record]]
molecule = "NC(=O)c1ccc(-c2cc(OC3CCCC3)c3c(N)n[nH]c3c2)cc1N1CCN(c2ccccc2)CC1"
valuekind = "pIC50"
result = 8.31

[[record]]
molecule = "COc1cnc2[nH]cc(Cc3cc(OC)c(OCc4ccc(Cl)cc4F)cc3F)c2c1"
valuekind = "pIC50"
result = "≥ 5.00"

[[record]]
molecule = "COCCCc1cc(Cl)c(Cl)cc1NC(=O)Nc1c(C)c(OC[C@H](O)CO)nn1-c1ccccc1"
valuekind = "pIC50"
result = "> 7.00"

[[record]]
molecule = "Cc1n[nH]c2cc(-c3ccc(C(N)=O)c(N4CCN(CC(F)(F)F)CC4)c3)cc(OC3CCOCC3)c12"
valuekind = "pIC50"
result = 7.64

[[record]]
molecule = "COCCCc1cc(Cl)c(Cl)cc1NC(=O)Nc1c(C)c(C2(C#N)CCOCC2)nn1-c1ccccc1"
valuekind = "pIC50"
result = "> 7.00"


----------
pIC50: −log10 of the molar value.
// read-out pIC50, gathered for High affinity nerve growth factor receptor (Homo sapiens, UniProt P04629) from published studies
valueKind: pIC50

[[record]]
compound = "Cc1c(C#Cc2cnc3cccnn23)cccc1C(=O)Nc1cc(CN2CCN(C)CC2)cc(C(F)(F)F)c1"
valuekind = "pIC50"
result = "7.00 to 8.00"

[[record]]
compound = "CCn1cc(Nc2ccc(Cc3c[nH]c4ncnc(C5CC5)c34)c(F)n2)cn1"
valuekind = "pIC50"
result = "> 7.00"

[[record]]
compound = "COCCN1C[C@@H](NC(=O)Nc2c(Cl)c(OCC(C)(C)O)nn2-c2ccccc2)[C@H](c2ccc(F)cc2)C1"
valuekind = "pIC50"
result = "> 7.00"

[[record]]
compound = "COc1ccc(COc2ccc(Cn3cnc4cc(C5=CC6(C)CCCN5C6)cnc43)cc2OC)cn1 (stereo not drawn)"
valuekind = "pIC50"
result = 6.70

[[record]]
compound = "COc1cc2nccc(Oc3ncc(NC(=O)c4nn(C(C)C)cc(-c5ccc(F)cc5)c4=O)cn3)c2cc1OC"
valuekind = "pIC50"
result = 8.30

[[record]]
compound = "COCCCc1cc(Cl)c(Cl)cc1NC(=O)Nc1c(C)c(-c2cnn(C)c2)nn1-c1ccccc1"
valuekind = "pIC50"
result = "> 7.00"


----------
// read-out IC50, gathered for High affinity nerve growth factor receptor (Homo sapiens) from published studies
valueKind: IC50

[[record]]
compound = "CC(=O)N1CCN(c2ccc(NC(=O)c3coc4c3C(=O)NCC4)cc2)CC1"
result = "55.9 nM"

[[record]]
compound = "C[C@@H]1C(NC(=O)Nc2c3c(nn2-c2ccccc2)CCC3)[C@H](c2ccccc2)CN1CC(F)(F)F (some centres unmarked)"
result = "100 to 1000 nM"

[[record]]
compound = "C[C@@H]1CCCc2ncc(F)cc2[C@H]2CCCN2c2ccc3ncnc(c3n2)N1"
result = "< 50 nM"

[[record]]
compound = "CCn1cc(C(=O)Nc2ccc(Oc3ccnc4ccc5c(c34)OCCO5)cc2)c(=O)n(-c2ccc(F)cc2)c1=O"
result = "50 to 500 nM"

[[record]]
compound = "COCCN1C[C@@H](NC(=O)Nc2c(C)c(OC[C@H]3COC(C)(C)O3)nn2-c2ccccc2)[C@H](c2cc(F)cc(F)c2)C1"
result = "< 100 nM"

[[record]]
compound = "CNC(=O)c1ccc(-c2cc(OC3CCOCC3)c3c(C)n[nH]c3c2)cc1N1CCN(Cc2cccc(F)c2)CC1"
result = "15.9 nM"

[[record]]
compound = "Nc1n[nH]c2cc(-c3ccc(C(=O)NC4CC4)c(N4CCN(c5cccnc5)CC4)c3)cc(OC3CCOCC3)c12"
result = "20.4 nM"

[[record]]
compound = "C=CCn1cc(C(=O)Nc2ccc(Oc3ccnc4cc(OC)c5c(c34)OCCO5)c(F)c2)c(=O)n(-c2ccc(F)cc2)c1=O"
result = "50 to 500 nM"

[[record]]
compound = "Oc1c(Cl)cc(-c2c[nH]c3ncnc(NC4CCC(O)CC4)c23)cc1Cl (centres unmarked)"
result = "57.9 nM"

[[record]]
compound = "CCc1ccc(Nc2ccc(C(=O)c3c[nH]c4ncnc(NC5CC5)c34)c(F)n2)cn1"
result = "< 10 nM"

[[record]]
compound = "COCCN1C[C@@H](NC(=O)Nc2c(C)c(-c3cnn(C)c3)nn2-c2cncc(C)c2)[C@H](c2ccc(F)c(F)c2)C1"
result = "100 to 1000 nM"

[[record]]
compound = "COc1ncccc1N1C[C@@H](NC(=O)Nc2c(C)c(-c3ccccc3)nn2-c2ccccc2)[C@H](c2ccccc2)C1"
result = "100 to 1000 nM"

[[record]]
compound = "COCCN1C[C@@H](NC(=O)Nc2c(C)c(-c3ccccc3)nn2-c2ccccc2)[C@H](c2cncc(F)c2)C1 (relative stereo)"
result = "< 100 nM"

[[record]]
compound = "C[C@H](Nc1ncc(F)c(Nc2cc(C3CC3)[nH]n2)n1)c1ccc(F)cn1"
result = "10 nM"

[[record]]
compound = "Cc1n[nH]c2cc(-c3ccc(NS(C)(=O)=O)c(N4CCN(C(=O)OC(C)(C)C)CC4)c3)cc(OC3CCOCC3)c12"
result = "28.1 nM"

[[record]]
compound = "CC(=O)N1CCN(c2cc(-c3cc(OC(C)C(F)(F)F)c4c(N)n[nH]c4c3)ccc2C(N)=O)CC1 (centres unmarked)"
result = "89.2 nM"

[[record]]
compound = "COCCN1C[C@@H](NC(=O)Nc2c(C)c(-c3ccc(=O)n(C(C)C)c3)nn2-c2ccccc2)[C@H](c2ccc(F)c(F)c2)C1"
result = "< 100 nM"

[[record]]
compound = "Fc1cccc(Cc2ccc3[nH]nc(C#Cc4ccccn4)c3c2)c1"
result = "26 nM"

[[record]]
compound = "CC(C)n1cc(C(=O)Nc2ccc(Oc3ccnc4cc(OCC5(N)CC5)c5c(c34)OCCO5)c(F)c2)c(=O)n(-c2ccc(F)cc2)c1=O"
result = "50 to 500 nM"

[[record]]
compound = "COCCN1C[C@@H](NC(=O)Nc2c3c(nn2-c2ccnnc2)CCC3)[C@H](c2ccc(F)c(F)c2)C1"
result = "100 to 1000 nM"

[[record]]
compound = "CC(Oc1cc(-c2ccc(C(N)=O)c(N3CCN(CCC(C)(C)C)CC3)c2)cc2[nH]nc(N)c12)C(F)(F)F (centres unmarked)"
result = "4.98 nM"

[[record]]
compound = "CNC(=O)c1nn(-c2ccccc2)c(NC(=O)Nc2cc(C(F)(F)F)c(F)cc2CCCOC)c1C"
result = "< 100 nM"

[[record]]
compound = "CC1(C)CC(=O)c2c(C(=O)Nc3ccc4[nH]c(CO)nc4c3)coc2C1"
result = "74 nM"


----------
// read-out IC50, gathered for High affinity nerve growth factor receptor (Homo sapiens, UniProt P04629) from published studies
valueKind: IC50

[[record]]
compound = "Cc1cc(NC(=O)N[C@@H]2c3cc(F)c(F)cc3C(C)(C)C[C@H]2O)c(-c2ccccc2)nc1-c1ccn(C)n1 (racemic)"
valuekind = "IC50"
result = "≤ 0.05 µM"

[[record]]
compound = "COCCN1C[C@@H](NC(=O)Nc2c(C)c(COC)nn2-c2ccccc2)[C@H](c2ccccc2)C1"
valuekind = "IC50"
result = "< 0.1 µM"

[[record]]
compound = "COc1cc(Cc2c[nH]c3ncc(Cl)cc23)c(Cl)cc1OCc1nc2ccccc2[nH]1"
valuekind = "IC50"
result = "≤ 10 µM"

[[record]]
compound = "COCCN1C[C@@H](NC(=O)Nc2cc(C(C)(C)CO)nn2-c2ccccc2)[C@H](c2ccccc2)C1"
valuekind = "IC50"
result = "0.1 to 1 µM"

[[record]]
compound = "COCCN1C[C@@H](NC(=O)Nc2c(Cl)c(OCc3ccccc3)nn2C)[C@H](c2ccc(F)c(F)c2)C1"
valuekind = "IC50"
result = "0.1 to 1 µM"

[[record]]
compound = "COCCN1C[C@@H](NC(=O)Nc2c(Br)c(-c3ccccc3)nn2-c2ccccc2)[C@H](c2cncc(F)c2)C1 (relative stereo)"
valuekind = "IC50"
result = "< 0.1 µM"

[[record]]
compound = "COc1cc(Cc2c[nH]c3ncc(F)cc23)c(F)cc1OCc1nc2ccccc2[nH]1"
valuekind = "IC50"
result = "≤ 10 µM"

[[record]]
compound = "COc1cc2nccc(Oc3ccc(NC(=O)c4ccn(-c5ccc(F)cc5C)n4)cc3F)c2c2c1OCCO2"
valuekind = "IC50"
result = "0.05 to 0.5 µM"

[[record]]
compound = "COCCN1C[C@@H](NC(=O)Nc2c(C)c(-c3cnc(C)nc3)nn2-c2ccccc2)[C@H](c2ccc(F)c(F)c2)C1"
valuekind = "IC50"
result = "< 0.1 µM"

